# target: Polyunsaturated fatty acid 5-lipoxygenase (Cavia porcellus)
# test.details: Inhibitory activity against 5-lipoxygenase in guinea pig leukocyte
measured.metric: IC50 (µM)
Answer format: numeric, µM implied, no suffix.

### Prompt Provide value of IC50 for this record tested with Polyunsaturated fatty acid 5-lipoxygenase (Cavia porcellus): `Cc1ccc(/C=C/C(=O)NCCCCN2CCN(C(c3ccccc3)c3ccccc3)CC2)cn1`
### Response 4.86
